Assay: Primary qHTS for delayed death inhibitors of the malarial parasite plastid, 48 hour incubation
Settings: P. falciparum luciferase growth in erythrocytes; series mostly up to 28.7 µM
Hit rate of the full screen: of about 310,000 compounds, about 18,000 (5.8%) were called active. Another 22% or so got no clear call; they are omitted. Shown is part of a subset that was picked to be rich in actives.
readout_name: outcome

Cc1cn([C@H]2CC(F)[C@@H](CO)O2)c(=O)[nH]c1=O (stereo partly specified) ... inactive
CC(C)OC(=O)c1ccc(COc2ccc3ccc(=O)oc3c2)o1 ... inactive
Cn1c(SCC(=O)Nc2ccc(N3CCOCC3)cc2)nnc1C(F)(F)F ... inactive
Cc1ccc(C(=O)Nc2nnc(C3=COCCO3)o2)cc1C ... inactive
CS(=O)(=O)N1CCN=C1SCc1ccc(F)cc1 ... inactive

Now look at this one.
Query: Which measured outcome value corresponds to `N#CCCN(C(=O)COC(=O)c1ccc(S(=O)(=O)N2CCCCCC2)cc1)c1ccccc1` ?
Result: inactive
